Hey, just so you know, these numbers are from paper doi:10.1101/2021.05.27.445942v1.

Answer each item with its documented response current.
STUDY_SYSTEM: CmedPR2 (with CmedORco) (Cnaphalocrocis medinalis, UniProt A0A0U3BFF0)
Sequence (A0A0U3BFF0 1-434): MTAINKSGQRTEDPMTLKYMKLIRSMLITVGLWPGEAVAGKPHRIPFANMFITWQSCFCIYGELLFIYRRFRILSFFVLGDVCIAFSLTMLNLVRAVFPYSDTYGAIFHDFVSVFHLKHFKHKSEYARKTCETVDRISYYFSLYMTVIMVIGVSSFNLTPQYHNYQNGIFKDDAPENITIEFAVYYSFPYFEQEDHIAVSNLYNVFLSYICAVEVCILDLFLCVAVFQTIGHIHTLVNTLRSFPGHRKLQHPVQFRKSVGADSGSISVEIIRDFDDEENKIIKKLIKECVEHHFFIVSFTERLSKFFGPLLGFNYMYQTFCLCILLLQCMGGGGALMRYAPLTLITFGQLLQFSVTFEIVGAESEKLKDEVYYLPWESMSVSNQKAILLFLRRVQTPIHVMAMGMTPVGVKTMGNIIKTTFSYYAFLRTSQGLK
Sequence (H9XFD5 1-473 partner): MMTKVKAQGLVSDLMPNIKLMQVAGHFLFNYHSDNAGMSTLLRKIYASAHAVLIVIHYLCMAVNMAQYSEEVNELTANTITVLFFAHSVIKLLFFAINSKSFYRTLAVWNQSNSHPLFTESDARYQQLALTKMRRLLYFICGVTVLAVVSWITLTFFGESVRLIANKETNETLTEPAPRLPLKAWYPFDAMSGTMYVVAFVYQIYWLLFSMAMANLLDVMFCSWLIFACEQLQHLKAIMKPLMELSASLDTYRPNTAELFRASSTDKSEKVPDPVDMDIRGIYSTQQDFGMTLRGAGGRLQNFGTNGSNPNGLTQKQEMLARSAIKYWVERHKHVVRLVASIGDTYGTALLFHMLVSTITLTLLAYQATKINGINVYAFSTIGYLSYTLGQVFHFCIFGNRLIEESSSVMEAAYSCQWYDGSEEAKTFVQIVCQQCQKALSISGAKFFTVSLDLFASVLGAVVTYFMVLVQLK
PROCEDURE_SUMMARY: two-electrode voltage clamp, Xenopus oocytes
Type: cell-based
CONDITION: agonist 10-4 mol/L; co-expressed CmedORco; holding potential -80 mV; pH 7.5
Expressed in nA, but write only the number.

Exam item: Recorded response current for CCCC/C=C\CCCCCCCCCCCC=O [Z13-18:Ald, (Z)-13-octadecenal] , please?
Marked response: 106

Exam item: Recorded response current for CCCC/C=C\CCCCCCCCCCCCO [Z13-18:OH, (Z)-13-octadecen-1-ol] , please?
Marked response: 46
